Experiment: Selectivity index, ratio of CC50 for human HepG2 cells to IC50 for chloroquine-resistant Plasmodium falciparum W2 infected in human erythrocytes
Assay type: functional
property-measured: Ratio CC50/IC50
Give bare numbers.

| compound | Ratio CC50/IC50 |
| --- | --- |
| C=C1C[C@@]23CC[C@H]4[C@@](C)(CCC[C@@]4(C)C(=O)O)[C@@H]2CC[C@@H]1C3 [KAURENOIC ACID] | 9.1 |
| C=C1C[C@@]23CC[C@H]4[C@@](C)(CCC[C@@]4(C)C(=O)OC)[C@@H]2CC[C@H]1C3 | 3.9 |
| COC(=O)[C@]1(C)CCC[C@]2(C)[C@@H]1CC[C@@]13C[C@H](C[C@H]4O[C@]412)[C@]1(CO1)C3 | 117.4 |

Lab note: each compound below needs its Ratio CC50/IC50 filled in.
1. COC(=O)[C@]1(C)CCC[C@@]2(C)[C@@H]3CC[C@H]4C[C@]3(C=C4C)CC[C@@H]21
2. COC(=O)[C@]1(C)CCC[C@@]2(C)[C@@H]3CC[C@H]4C[C@@]3(CC[C@@H]21)C[C@]41CO1
3. COC(=O)[C@]1(C)CCC[C@]2(C)[C@@H]1CC[C@@]13C[C@H](C[C@H]4O[C@]412)[C@@]1(CO1)C3

Found:
1. 5.1
2. 11.5
3. 119.1

---

Test system: HeLa
Assay: Growth inhibition against human HeLa cells after 72 hrs by inverted microscopy
Assay type: functional
Structures can show the parent of a compound that is named as a salt.
property-measured: GI50

Solved cases (5 shown):
| molecule | property-measured | result |
| --- | --- | --- |
| C=C1[C@H]2CC[C@H]3[C@]4(C)CCC[C@@](C)(C(=O)OC)[C@H]4CC[C@]3(C2)[C@H]1O | GI50 | 7.04 µM |
| COC(=O)[C@]1(C)CCC[C@]2(C)[C@@H]1CC[C@@]13C[C@H](C[C@H]4O[C@]412)[C@]1(CO1)C3 | GI50 | > 8.66 µM |
| COC(=O)[C@]1(C)CCC[C@@]2(C)C3=CC[C@H]4C[C@@]3(CC[C@H]12)CC4CO (mixture of isomers) | GI50 | > 9.02 µM |
| COC(=O)[C@]1(C)CCC[C@@]2(C)[C@@H]3CC[C@H]4C[C@@]3(CC[C@@H]21)C[C@]41CO1 | GI50 | > 9.02 µM |
| COC(=O)[C@]1(C)CCC[C@@]2(C)[C@@H]3CC[C@H]4C[C@@]3(CC[C@@H]21)C[C@@H]4C=O | GI50 | > 9.02 µM |

Lab note: each molecule below needs its GI50 filled in.
1. C=C1C[C@@]23CC[C@H]4[C@@](C)(CCC[C@@]4(C)C(=O)O)[C@@H]2CC[C@@H]1C3
2. C[C@@]1(C(=O)O)CCC[C@@]2(C)C3=CC[C@H]4C[C@@]3(CC[C@H]12)C[C@]41CO1
3. COC(=O)[C@]1(C)CCC[C@]2(C)[C@@H]1CC[C@@]13C[C@H](C[C@H]4O[C@]412)[C@@]1(CO1)C3
4. COC(=O)[C@]1(C)CCC[C@@]2(C)[C@@H]3[C@@H](O)C[C@H]4C[C@@]3(CC[C@@H]21)C[C@@H]4CO
5. C=C1C[C@@]23CC[C@H]4[C@@](C)(CCC[C@@]4(C)C(=O)OC)[C@@H]2CC[C@H]1C3
6. COc1cccc2c1C(=O)c1c(O)c3c(c(O)c1C2=O)C[C@@](O)(C(=O)CO)C[C@@H]3O[C@H]1C[C@H](N)[C@H](O)[C@H](C)O1 [DOXORUBICIN HYDROCHLORIDE]
7. COC(=O)[C@]1(C)CCC[C@@]2(C)[C@@H]3CC[C@H]4C[C@]3(C=C4C)CC[C@@H]21

Found:
> 9.92 µM
> 9.48 µM
> 8.66 µM
> 8.56 µM
> 9.48 µM
0.17 µM
> 9.48 µM

---

Test system: HT-29
Assay: Growth inhibition against human HT-29 cells after 72 hrs by inverted microscopy
Format: functional
Conditions: HT-29, 72 h
Field: GI50. Provide a value for each of the compounds that follow.

Solved cases (10 shown):
| compound | property-measured | result |
| --- | --- | --- |
| COC(=O)[C@]1(C)CCC[C@]2(C)[C@@H]1CC[C@@]13C[C@H](C[C@H]4O[C@]412)[C@]1(CO1)C3 | GI50 | > 8.66 µM |
| COC(=O)[C@]1(C)CCC[C@@]2(C)[C@@H]3CC[C@H]4C[C@@]3(CC[C@@H]21)C[C@]41CO1 | GI50 | > 9.02 µM |
| COC(=O)[C@]1(C)CCC[C@@]2(C)[C@@H]3CC[C@H]4C[C@@]3(CC[C@@H]21)C[C@@H]4C=O | GI50 | > 9.02 µM |
| COC(=O)[C@]1(C)CCC[C@@]2(C)[C@@H]3CC[C@H]4C[C@@]3(CC[C@@H]21)C[C@H]4C=O | GI50 | > 9.02 µM |
| C=C1C[C@@]23CC[C@H]4[C@@](C)(CCC[C@@]4(C)C(=O)O)[C@@H]2CC[C@@H]1C3 | GI50 | > 9.92 µM |
| COC(=O)[C@]1(C)CCC[C@@]2(C)C3=CC[C@H]4C[C@@]3(CC[C@H]12)CC4CO (mixture of isomers) | GI50 | > 9.02 µM |
| COC(=O)[C@]1(C)CCC[C@@]2(C)[C@@H]3[C@@H](O)C[C@H]4C[C@@]3(CC[C@@H]21)C[C@@H]4CO | GI50 | > 8.56 µM |
| C=C1[C@H]2CC[C@H]3[C@]4(C)CCC[C@@](C)(C(=O)OC)[C@H]4CC[C@]3(C2)[C@H]1O | GI50 | 7.4 µM |
| C[C@@]1(C(=O)O)CCC[C@@]2(C)C3=CC[C@H]4C[C@@]3(CC[C@H]12)C[C@]41CO1 | GI50 | > 9.48 µM |
| COC(=O)[C@]1(C)CCC[C@]2(C)[C@@H]1CC[C@@]13C[C@H](C[C@H]4O[C@]412)[C@@]1(CO1)C3 | GI50 | > 8.66 µM |

Lab note: each compound below needs its GI50 filled in.
1. COC(=O)[C@]1(C)CCC[C@@]2(C)[C@@H]3CC[C@H]4C[C@@]3(CC[C@@H]21)[C@@H](O)[C@@H]4C
2. C=C1C[C@@]23CC[C@H]4[C@@](C)(CCC[C@@]4(C)C(=O)OC)[C@@H]2CC[C@H]1C3

Found:
1: > 9.02 µM; 2: > 9.48 µM

---

Test system: HeLa
Test: Growth inhibition against human HeLa cells after 72 hrs by inverted microscopy
Format: functional
property-measured: GI50

| smiles-record | result |
| --- | --- |
| COC(=O)[C@]1(C)CCC[C@@]2(C)[C@@H]3CC[C@@H]4C[C@@]3(CC[C@@H]21)C[C@@H]4CO | > 9.02 µM |
| COC(=O)[C@]1(C)CCC[C@@]2(C)[C@@H]3CC[C@H]4C[C@@]3(CC[C@@H]21)[C@@H](O)[C@@H]4C | > 9.02 µM |
| COC(=O)[C@]1(C)CCC[C@@]2(C)[C@@H]3CC[C@H]4C[C@@]3(CC[C@@H]21)C[C@H]4C=O | > 9.02 µM |

// switching to the query molecule
Lookup: Please look up its GI50: COC(=O)[C@]1(C)CCC[C@@]2(C)[C@@H]3[C@H](O)C[C@H]4C[C@@]3(CC[C@@H]21)C[C@@H]4CO
Found: > 8.56 µM

---

Experiment: Cytotoxicity against human HepG2 cells after 24 hrs by MTT assay
Assay type: cell-based
Field: CC50 at 24 h. Provide a value for each of the compounds that follow.
Numbers only, in µM.

Solved cases (5 shown):
| compound | numeric-readout |
| --- | --- |
| COC(=O)[C@]1(C)CCC[C@]2(C)[C@@H]1CC[C@@]13C[C@H](C[C@H]4O[C@]412)[C@]1(CO1)C3 | 810 |
| COC(=O)[C@]1(C)CCC[C@@]2(C)[C@@H]3CC[C@H]4C[C@]3(C=C4C)CC[C@@H]21 | 44.9 |
| C=C1C[C@@]23CC[C@H]4[C@@](C)(CCC[C@@]4(C)C(=O)OC)[C@@H]2CC[C@H]1C3 | 32.2 |
| COC(=O)[C@]1(C)CCC[C@@]2(C)[C@@H]3CC[C@H]4C[C@@]3(CC[C@@H]21)C[C@]41CO1 | 111 |
| COC(=O)[C@]1(C)CCC[C@]2(C)[C@@H]1CC[C@@]13C[C@H](C[C@H]4O[C@]412)[C@@]1(CO1)C3 | 1240 |

Lab note: each compound below needs its CC50 at 24 h filled in.
1. CCN(CC)CCCC(C)Nc1ccnc2cc(Cl)ccc12 (configuration not stated)
2. C=C1C[C@@]23CC[C@H]4[C@@](C)(CCC[C@@]4(C)C(=O)O)[C@@H]2CC[C@@H]1C3

Found:
[504, 192]
